Reference for the values: patent US8822462B2

Target: NR1/NR2C (Homo sapiens, UniProt Q05586+Q14957)
Construct: expressed in transfected cells; host or cells: Xenopus laevis oocytes
Sequence (Q14957 20-1233, species assumed, other chains not shown): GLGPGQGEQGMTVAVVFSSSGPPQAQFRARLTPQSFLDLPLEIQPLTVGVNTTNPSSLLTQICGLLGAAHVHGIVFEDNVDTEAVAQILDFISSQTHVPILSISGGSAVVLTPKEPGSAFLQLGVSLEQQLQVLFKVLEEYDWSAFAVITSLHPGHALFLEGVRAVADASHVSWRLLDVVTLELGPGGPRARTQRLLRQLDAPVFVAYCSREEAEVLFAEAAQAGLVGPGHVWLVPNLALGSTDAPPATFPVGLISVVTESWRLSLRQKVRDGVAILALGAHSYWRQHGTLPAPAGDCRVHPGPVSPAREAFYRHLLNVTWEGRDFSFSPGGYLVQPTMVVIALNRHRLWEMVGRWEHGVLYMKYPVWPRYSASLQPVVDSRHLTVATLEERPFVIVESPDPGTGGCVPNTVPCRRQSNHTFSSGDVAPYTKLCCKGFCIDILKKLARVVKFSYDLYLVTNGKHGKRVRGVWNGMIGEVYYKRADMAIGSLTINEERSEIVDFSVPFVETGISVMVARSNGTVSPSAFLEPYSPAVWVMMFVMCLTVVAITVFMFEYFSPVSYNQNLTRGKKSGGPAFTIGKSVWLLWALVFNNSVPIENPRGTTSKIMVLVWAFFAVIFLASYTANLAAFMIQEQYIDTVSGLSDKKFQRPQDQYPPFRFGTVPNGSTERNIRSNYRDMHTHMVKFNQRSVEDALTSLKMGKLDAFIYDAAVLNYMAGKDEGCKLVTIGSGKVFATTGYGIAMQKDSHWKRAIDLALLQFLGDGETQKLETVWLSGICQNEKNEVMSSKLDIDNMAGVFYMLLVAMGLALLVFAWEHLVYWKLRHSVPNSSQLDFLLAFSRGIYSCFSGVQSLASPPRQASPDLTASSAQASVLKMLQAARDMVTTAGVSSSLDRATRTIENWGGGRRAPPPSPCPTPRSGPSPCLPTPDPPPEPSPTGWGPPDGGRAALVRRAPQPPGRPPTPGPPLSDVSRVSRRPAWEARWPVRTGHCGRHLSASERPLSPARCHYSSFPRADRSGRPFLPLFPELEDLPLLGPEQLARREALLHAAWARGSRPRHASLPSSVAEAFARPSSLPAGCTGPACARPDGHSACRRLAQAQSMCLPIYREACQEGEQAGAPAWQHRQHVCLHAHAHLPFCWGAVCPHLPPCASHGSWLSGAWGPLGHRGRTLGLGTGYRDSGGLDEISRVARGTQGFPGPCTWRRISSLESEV
Assay: Two electrode voltage clamp, Xenopus laevis oocytes expressing NR1/NR2C
Format: cell-based
Conditions: maximal effect of fit; read-out: 2C Max
Measured quantity: Emax (%)
One number for each entry, in %.

Below are worked cases with known answers.
{"columns": ["Molecule", "Test value"],
 "data": [
  ["COc1ccc(OCC2c3ccc(OC)cc3CCN2C(=O)c2cccc(Cl)c2)cc1 (stereo not drawn)", 196],
  ["CC(C)(C)c1ccc(C(=O)NC2=C(C(=O)O)C3CCCCCC3S2)cc1 (stereo not drawn)", 127],
  ["COc1ccc(OCC2c3cc(OC)c(OC)cc3CCN2C(=O)c2cccc(OC)c2)cc1 (stereo not drawn)", 181]
]}

// batch mode: one Emax value per listed entry
1. COc1ccc(OCC2c3cc(OC)c(OC)cc3CCN2C(=O)c2cccc(C(F)(F)F)c2)cc1 (stereo not drawn)
2. CCc1ccc(OCC2c3cc(OC)c(OC)cc3CCN2C(=O)c2ccccc2)cc1 (stereo not drawn)
3. COc1ccc(OCC2c3c(cc(OC)cc3OC)CCN2C(=O)c2cccc(Br)c2)cc1 (stereo not drawn)

Result:
[171, 121, 265]
